tested on: Escherichia coli TOP10; assay: shrunken log2 fold change of peptide-encoding DNA abundance (4.5 h post-induction vs induction); higher = less antimicrobial activity (less host growth inhibition); conditions: time post-induction: 4.5 h; library: site-saturation at positions 5, 18, 19, 20
property_measured: shrunken log2 fold change
Answers are plain numbers.

Study these solved cases before continuing.
entry_sequence	shrunken log2 fold change
RRIRKRPPRLPRPRPRPNLGPRP	0.207
RRIRQRPPRLPRPRPRPTYRPRP	0.06
RRIRIRPPRLPRPRPRPIKGPRP	-0.068
RRIRNRPPRLPRPRPRPLRQPRP	0.154
RRIRYRPPRLPRPRPRPSHIPRP	-1.45
RRIRKRPPRLPRPRPRPYMDPRP	-0.763
RRIRGRPPRLPRPRPRPSDFPRP	0.0231
RRIRFRPPRLPRPRPRPGCWPRP	0.524

Could you tell me shrunken log2 fold change for each of these sequences? They are listed below.
1. RRIRNRPPRLPRPRPRPSALPRP
2. RRIRMRPPRLPRPRPRPFSWPRP
3. RRIRQRPPRLPRPRPRPQMYPRP
4. RRIRLRPPRLPRPRPRPYNVPRP
5. RRIRWRPPRLPRPRPRPRALPRP
6. RRIRKRPPRLPRPRPRPTWKPRP
7. RRIRYRPPRLPRPRPRPMMLPRP
8. RRIRQRPPRLPRPRPRPWKVPRP

Result:
1. -0.213
2. 0.0956
3. -0.0131
4. -0.119
5. 0.354
6. 0.107
7. -0.00141
8. -0.00992

Could you tell me shrunken log2 fold change for each of these sequences? They are listed below.
1. RRIRQRPPRLPRPRPRPCDLPRP
2. RRIRARPPRLPRPRPRPHNTPRP
3. RRIRMRPPRLPRPRPRPYEWPRP
4. RRIRGRPPRLPRPRPRPVPEPRP
5. RRIRPRPPRLPRPRPRPEPHPRP

Result:
-0.265
-0.235
-0.0304
1.98
0.298

Could you tell me shrunken log2 fold change for each of these sequences? They are listed below.
1. RRIRCRPPRLPRPRPRPPQPPRP
2. RRIRWRPPRLPRPRPRPQYDPRP
3. RRIRARPPRLPRPRPRPGNGPRP
4. RRIRIRPPRLPRPRPRPFYHPRP
5. RRIRARPPRLPRPRPRPHQHPRP
6. RRIRLRPPRLPRPRPRPETMPRP
7. RRIRCRPPRLPRPRPRPYYVPRP
8. RRIRARPPRLPRPRPRPASTPRP

Result:
[0.858, -0.212, 0.275, -0.594, -0.109, 0.0125, -0.519, 0.318]

###

test system: Escherichia coli TOP10; experiment: shrunken log2 fold change of peptide-encoding DNA abundance (4.5 h post-induction vs induction); higher = less antimicrobial activity (less host growth inhibition); settings: time post-induction: 4.5 h; library: site-saturation at positions 5, 18, 19, 20;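 further: peptides expressed intracellularly from a pBAD plasmid library in pooled LB shake-flask culture, induced with 0.3% L-arabinose, DNA abundance read by NGS, three biological replicates, DESeq2 with apeglm shrinkage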
property_measured: shrunken log2 fold change
Numbers only.

Study these solved cases before continuing.
entry_sequence	readout_number
RRIRYRPPRLPRPRPRPGFAPRP	-0.00507
RRIRPRPPRLPRPRPRPARDPRP	0.208
RRIRHRPPRLPRPRPRPIHMPRP	-0.141
RRIRVRPPRLPRPRPRPNLGPRP	-0.185
RRIRPRPPRLPRPRPRPFMQPRP	-0.396
RRIRTRPPRLPRPRPRPSEIPRP	-0.242

Could you tell me shrunken log2 fold change for each of these sequences? They are listed below.
1. RRIRGRPPRLPRPRPRPVEHPRP
2. RRIRQRPPRLPRPRPRPIRPPRP

Result:
0.117
0.0227
